# System: RXF 393 renal
# procedure_summary: NCI tumour cell line growth inhibition, 48 h
Each item that follows carries a reported TGI.

molecule: CCOC(=O)CC(c1ccccc1)C(C)(C(=O)OCC)C(=O)OCC (stereo not given)
target_system: RXF 393 renal
TGI: 60.9 µM
//
molecule: Clc1cccc(-c2sc(-c3ccsc3)cc2Cc2ccsc2)c1
target_system: RXF 393 renal
TGI: > 10 µM
//
molecule: N=C(N)c1ccc(-c2ccc(/C=C/c3ccccc3)s2)cc1
target_system: RXF 393 renal
TGI: 3.13 µM
//
molecule: O=C(O)/C(Cl)=C(\Cl)C(=O)c1ccccc1
target_system: RXF 393 renal
TGI: > 100 µM
//
molecule: CC(=O)OC1CCC2(C)C(CCC3C2CC(=O)C2(C)C3CC(N3CC3)C2C(C)=O)C1 (stereo not given)
target_system: RXF 393 renal
TGI: 42.3 µM
//
molecule: C=C1C(=O)O[C@H]2[C@H]1CC/C(COC(=O)NCc1c[nH]c3ccccc13)=C\CC[C@@]1(C)O[C@@H]21
target_system: RXF 393 renal
TGI: 2.72 µM
//
molecule: C[C@@]1(C(=O)O)CCC[C@]2(C)C1CC[C@@]13C[C@@](O)(CC[C@]12O)[C@@]1(CO1)C3 (stereo not given in full)
target_system: RXF 393 renal
TGI: > 100 µM
//
molecule: Cc1n[nH]c(=S)n(C)c1=S
target_system: RXF 393 renal
TGI: > 100 µM
//
molecule: COc1cccc(C23CCCC(C2)NCC3Br)c1OC (stereo not given)
target_system: RXF 393 renal
TGI: > 100 µM
//
molecule: COc1cc(C)c(/C=C2/N=C(c3ccccc3)OC2=O)c([N+](=O)[O-])c1OC
target_system: RXF 393 renal
TGI: > 100 µM
//
molecule: CC(O)C1(CNc2cc(Cl)nc(N)n2)CCCCC1 (stereo not given)
target_system: RXF 393 renal
TGI: > 100 µM
//
molecule: Cc1c2ccn(O)cc2c(C)c2c1nc1ccccc12
target_system: RXF 393 renal
TGI: 22.6 µM
//
molecule: Cc1ccc(C(=O)Nc2ccc(CP(=O)(O)O)cc2)cc1NC(=O)c1cccc(N)c1
target_system: RXF 393 renal
TGI: > 100 µM
//
molecule: CC(=O)Nc1ccc2nc(-c3ccccn3)c(-c3ccccn3)nc2c1
target_system: RXF 393 renal
TGI: > 100 µM
//
molecule: CC(=O)OCC1OC(n2ccc(=O)[nH]c2=O)C(OC(C)=O)C(OC(C)=O)C1OC(C)=O (stereo not given)
target_system: RXF 393 renal
TGI: > 100 µM
//
molecule: NC(N)=NS(=O)(=O)c1ccc(N/N=C2/CCOC2=O)cc1
target_system: RXF 393 renal
TGI: > 100 µM
//
molecule: COc1ccc(C=Nc2c(C(=O)Nc3cccc(Cl)c3C)sc3nc(C)c(C(=O)/C=C/c4ccc(OC)cc4)cc23)cc1
target_system: RXF 393 renal
TGI: 0.906 µM
//
molecule: CC(C)N1CCN(c2ccncc2S(=O)(=O)N2CCCCC2)CC1
target_system: RXF 393 renal
TGI: > 100 µM
//
molecule: O=C(O)C[C@@H](Cl)[C@H](NC(=O)OCc1ccccc1)C(=O)O
target_system: RXF 393 renal
TGI: > 100 µM
//
molecule: O=C1/C=C/[C@@H](O)[C@@H]2C[C@@H](O)C[C@H]2/C=C/CCC[C@H](CCc2cccc3ccccc23)O1
target_system: RXF 393 renal
TGI: 0.0674 µM
//
molecule: CCC(=O)N1C(=O)OCC1C(C)C (stereo not given)
target_system: RXF 393 renal
TGI: > 100 µM
//
molecule: Oc1ccc(O)c(-c2cn3c(n2)SCC3)c1
target_system: RXF 393 renal
TGI: 36.2 µM
//
molecule: O=C(Nc1ccc(Cl)cc1C(F)(F)F)C(=O)C1CCCS1(=O)=O (stereo not given)
target_system: RXF 393 renal
TGI: > 100 µM
//
molecule: COC(=O)C1Cc2ccc(O)c(O)c2CN1 (stereo not given)
target_system: RXF 393 renal
TGI: > 100 µM
//
molecule: CCOP(=O)(OCC)/C(C#N)=C/c1cccn1C(C)C
target_system: RXF 393 renal
TGI: > 100 µM
//
molecule: COC(=O)c1cc(C(=O)OC)c(CC(=O)C(=O)NC2C3CC4CC(C3)CC2C4)nc1CC(=O)C(=O)NC1C2CC3CC(C2)CC1C3 (stereo not given)
target_system: RXF 393 renal
TGI: > 100 µM
//
molecule: N#CC(/C(CCC(=O)Nc1ccc(Cl)cc1)=N/NC(=O)c1cc2ccccc2cc1O)c1ccccc1 (stereo not given)
target_system: RXF 393 renal
TGI: > 100 µM
//
molecule: O=S(=O)(CCN1CCOCC1)Nc1cc(-c2ccc3ncnc(Nc4ccc(F)c(Cl)c4)c3c2)cnc1Cl
target_system: RXF 393 renal
TGI: 1.35 µM
//
molecule: COC(=O)/C=C\C(C#N)(C#N)N=Cc1cccc(OC)c1
target_system: RXF 393 renal
TGI: 9.62 µM
//
molecule: CC(CCC[C@H](C)CO)[C@H]1[C@@H](O)C(O)C2[C@@H]3C[C@@H](O)C4(O)C[C@@H](O)CC[C@]4(C)C3CC[C@@]21C (stereo not given in full)
target_system: RXF 393 renal
TGI: > 100 µM
//
molecule: CCCCCCCCCCCC(=O)OC[C@H](C[As](=O)(O)O)OC(=O)CCCCCCCCCCC
target_system: RXF 393 renal
TGI: 5.68 µM
//
molecule: O=C1c2ccccc2C(=O)N1CCSCC(CO)SCCN1C(=O)c2ccccc2C1=O (stereo not given)
target_system: RXF 393 renal
TGI: > 100 µM
//
molecule: COc1ccc([N+](=O)[O-])c2c(NCCCN(C)C)ccnc12
target_system: RXF 393 renal
TGI: 8.32 µM
//
molecule: CCCCN1CCCC[C@@H]1C(=O)N[C@H](C(=O)N(C)[C@H](C[C@@H](OC(C)=O)c1nc(C(=O)NC2CCC(C(=O)OC)CC2)cs1)C(C)C)C(C)C (stereo not given in full)
target_system: RXF 393 renal
TGI: 11.6 µM
//
molecule: COc1ccc(/C(=N\NC(=O)NN)C(c2ccc(OC)cc2)C2(O)C(=O)Nc3c(Cl)cc(Cl)cc32)cc1 (stereo not given)
target_system: RXF 393 renal
TGI: > 100 µM
//
molecule: CCOC(=O)C(=O)Nc1nc2c(OCC)cccc2s1
target_system: RXF 393 renal
TGI: > 100 µM
//
molecule: Cc1ccc(C2(c3ccc(Cl)cc3)c3ccccc3C3=NCCN32)cc1 (stereo not given)
target_system: RXF 393 renal
TGI: 10.9 µM
//
molecule: CC(=O)/C(=C/c1ccccc1)C(=O)CC(C)C
target_system: RXF 393 renal
TGI: 30.5 µM
//
molecule: O=C(Nc1cccc2c1C(=O)c1c(NC(=O)c3ccccc3)ccc(Nc3cccc4c3C(=O)c3ccccc3C4=O)c1C2=O)c1ccccc1
target_system: RXF 393 renal
TGI: > 100 µM
//
molecule: CN(CCCCCl)P(=O)(OCCS(=O)(=O)CC(NC(=O)CCC(N)C(=O)O)C(=O)NC(C(=O)O)c1ccccc1)OCC1OC(n2ccc(N)nc2=O)C(O)C1O (stereo not given)
target_system: RXF 393 renal
TGI: > 75 µM
